- TEST_TARGET: Decaprenylphosphoryl-beta-D-ribose oxidase (Mycobacterium tuberculosis (strain ATCC 25618 / H37Rv), UniProt P9WJF1)
- Sequence (P9WJF1 whole entry): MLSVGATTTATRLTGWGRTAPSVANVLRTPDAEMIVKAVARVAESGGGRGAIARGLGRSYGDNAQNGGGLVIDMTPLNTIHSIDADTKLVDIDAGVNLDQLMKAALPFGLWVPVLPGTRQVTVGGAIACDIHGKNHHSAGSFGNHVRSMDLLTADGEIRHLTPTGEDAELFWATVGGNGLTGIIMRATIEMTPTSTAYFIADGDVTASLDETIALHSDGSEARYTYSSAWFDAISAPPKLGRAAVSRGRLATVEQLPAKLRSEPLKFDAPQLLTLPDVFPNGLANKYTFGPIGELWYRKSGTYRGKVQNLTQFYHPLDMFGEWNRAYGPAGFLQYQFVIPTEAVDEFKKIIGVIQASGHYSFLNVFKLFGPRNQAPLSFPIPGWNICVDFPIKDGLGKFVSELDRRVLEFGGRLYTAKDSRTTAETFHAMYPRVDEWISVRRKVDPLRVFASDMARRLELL
- TEST_DESCRIPTION: Inhibition of Mycobacterium tuberculosis H37Rv DprE1
# pIC50 listing for each entry below
Worth noting: pIC50 values are minus log10 of concentrations stated in mol/L.

O=C(O)c1nc2ccc(C(F)(F)F)cc2nc1NCc1ccc(F)cc1    7.14

// next entry
Incoming: // lookup pIC50 for `O=C(O)c1nc2ccc(C(F)(F)F)cc2nc1NCc1ccc(Cl)cc1`
Outgoing: 7.30

###

- TEST_TARGET: Decaprenylphosphoryl-beta-D-ribose oxidase (Mycobacterium tuberculosis (strain ATCC 25618 / H37Rv))
- TEST_DESCRIPTION: Inhibition of Mycobacterium tuberculosis H37Rv DprE1
READOUT: IC50 (nM)
Give just the numeric value; nM need not be written.

Here are 4 compounds together with their reported answers.
COc1ccc(CNc2nc3cc(C(F)(F)F)ccc3nc2C(=O)O)cc1    41
O=C(O)c1nc2ccc(C(F)(F)F)cc2nc1NCc1ccc(C(F)(F)F)cc1    120
COc1ccc(CNc2nc3cc(C(F)(F)F)ccc3nc2C(=O)O)cc1F    80
N#Cc1ccc(CNc2nc3cc(C(F)(F)F)ccc3nc2C(=O)O)cc1    67

Now consider the entry below.
Incoming: Reported IC50 for `CCOc1ccc(CNc2nc3cc(C(F)(F)F)ccc3nc2C(=O)O)cc1` : what is it?
Outgoing: 88

Sourced from ChEMBL document CHEMBL4371005
